meta.source: patent US20250171437A1

Target: human PAH with the R408W mutation (A375 R408W cells) (Homo sapiens, UniProt P00439, R408W)
Construct: expressed in transfected cells
Assay: Cell Based Phenylalanine Flux Assay
Conditions: A375 R408W cells; 24 hrs with compound, then 20 μM sepiapterin and 800 μM 13C9,15N-Phenylalanine for 4 hours; 13C-Tyrosine by LC-MS; average where tested multiple times
List of AC50 values.

# count of solved cases: 4
[
  {
    "compound": "CC(C)(O)c1nc(C(F)F)c(C(=O)N2CCc3[nH]cnc3[C@H]2c2nc3ccc(F)c(F)c3o2)o1 [Example 297]",
    "AC50": "≤ 0.5 µM"
  },
  {
    "compound": "O=C(c1nnc(-c2cnn(C(F)F)c2)o1)N1CCc2[nH]cnc2[C@@H]1c1nc2cccc(F)c2o1 [Example 876]",
    "AC50": "≤ 0.5 µM"
  },
  {
    "compound": "Cn1cc(-c2nnc(C(=O)N3CCc4[nH]cnc4[C@@H]3c3nc4cc(F)ccc4o3)o2)c(C(F)(F)F)n1 [Example 117]",
    "AC50": "1 to 5 µM"
  },
  {
    "compound": "Cc1ccc2nc([C@H]3c4nc[nH]c4CCN3C(=O)c3oc(C(C)(C)O)nc3C(F)F)oc2c1 [Example 316]",
    "AC50": "1 to 5 µM"
  }
]

Note: attention shifts to another entry.
Lookup: Please look up its AC50: O=C(c1oc(-c2cnccn2)nc1C(F)F)N1CCc2[nH]cnc2[C@H]1c1nc2cccc(F)c2o1 [Example 693]
Found: ≤ 0.5 µM

* * *

Target: human PAH with the R408W mutation (A375 R408W cells) (Homo sapiens, UniProt P00439, R408W)
Construct: expressed in transfected cells
Sequence (P00439 1-452 R408W): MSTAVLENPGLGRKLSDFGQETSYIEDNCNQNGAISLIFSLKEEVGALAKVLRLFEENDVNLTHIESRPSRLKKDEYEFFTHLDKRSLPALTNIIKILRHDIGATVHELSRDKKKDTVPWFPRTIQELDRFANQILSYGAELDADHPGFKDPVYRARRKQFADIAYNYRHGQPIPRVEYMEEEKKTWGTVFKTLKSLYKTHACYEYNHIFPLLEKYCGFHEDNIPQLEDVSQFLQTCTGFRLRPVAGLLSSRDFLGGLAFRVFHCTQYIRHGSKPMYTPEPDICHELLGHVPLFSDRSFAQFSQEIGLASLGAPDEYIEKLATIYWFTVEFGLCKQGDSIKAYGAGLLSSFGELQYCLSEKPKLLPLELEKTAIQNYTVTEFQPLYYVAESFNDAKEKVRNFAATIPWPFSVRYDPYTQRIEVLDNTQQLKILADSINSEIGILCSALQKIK
Experiment: Cell Based Phenylalanine Flux Assay
Details: A375 R408W cells; 24 hrs with compound, then 20 μM sepiapterin and 800 μM 13C9,15N-Phenylalanine for 4 hours; 13C-Tyrosine by LC-MS; average where tested multiple times
parameter: AC50

[
  {
    "molecule": "O=C(c1ocnc1C(F)(F)F)N1CCc2[nH]cnc2[C@H]1c1nc2c(F)cccc2o1 [Example 167]",
    "AC50": "≤ 0.5 µM"
  },
  {
    "molecule": "O=C(c1nnc(-c2ncccc2F)o1)N1CCc2[nH]cnc2[C@H]1c1nc2cccc(C(F)(F)F)c2o1 [Example 840]",
    "AC50": "≤ 0.5 µM"
  },
  {
    "molecule": "O=C(c1cnn2cc(-c3ccccn3)ccc12)N1CCc2[nH]cnc2[C@@H]1c1nc2cc(F)ccc2o1 [Example 82]",
    "AC50": "≥ 5 µM"
  }
]

Lookup: Please look up its AC50: O=C(c1oc(-c2cccnc2)nc1C(F)F)N1CCc2[nH]cnc2[C@H]1c1nc2cc(F)ccc2o1 [Example 420]
Found: ≤ 0.5 µM

Lookup: Please look up its AC50: O=C(c1nnc(-c2ccccn2)o1)N1CCc2[nH]cnc2[C@@H]1c1nc2c(F)cccc2o1 [Example 334]
Found: 1 to 5 µM

Lookup: Please look up its AC50: O=C(c1ocnc1C(F)F)N1CCc2[nH]cnc2[C@H]1c1nc2c(F)cccc2o1 [Example 169]
Found: ≤ 0.5 µM

Lookup: Please look up its AC50: CC(C)(O)c1nc(Br)c(C(=O)N2CCc3[nH]cnc3[C@H]2c2nc3cc(F)ccc3o2)o1 [Example 124]
Found: 0.5 to 1 µM
